system: Human immunodeficiency virus 1; test: Antiviral activity against HIV1 harbouring T332S/V362I/prR41G mutant infected in human MT2 cells measured after 4 to 5 days by dual-luciferase reporter assay; format: functional, organism-based; conditions: Human immunodeficiency virus 1, MT2
readout name: pEC50
Remember, pEC50 is on a log scale: it is -log10 of the molar concentration.

The cases that follow already have their pEC50 on record.
C=C(C)[C@@H]1CC[C@]2(NCCN3CCS(=O)(=O)CC3)CC[C@]3(C)[C@H](CC[C@@H]4[C@@]5(C)CC=C(C6=CCC(CC)(C(=O)O)CC6)C(C)(C)[C@@H]5CC[C@]43C)[C@@H]12 (some centres undefined) | 8.01
C=C(C)[C@@H]1CC[C@]2(NCCN3CCC(S(C)(=O)=O)CC3)CC[C@]3(C)[C@H](CC[C@@H]4[C@@]5(C)CC=C(C6=CC[C@](CF)(C(=O)O)CC6)C(C)(C)[C@@H]5CC[C@]43C)[C@@H]12 | 8.19
C=C(C)[C@@H]1CC[C@]2(NCCN3CCC(S(C)(=O)=O)CC3)CC[C@]3(C)[C@H](CC[C@@H]4[C@@]5(C)CC=C(C6=CCC(CCO)(C(=O)O)CC6)C(C)(C)[C@@H]5CC[C@]43C)[C@@H]12 (some centres undefined) | 8.00

Please look at the following compound next.
Human immunodeficiency virus 1 assay, compound C=C(C)[C@@H]1CC[C@]2(NCCN3CCS(=O)(=O)CC3)CC[C@]3(C)[C@H](CC[C@@H]4[C@@]5(C)CC=C(C6=CCC(COC)(C(=O)O)CC6)C(C)(C)[C@@H]5CC[C@]43C)[C@@H]12 (some centres undefined) , recorded pEC50 = 7.86

---

assay: Metabolic stability in cynomolgus monkey liver microsomes assessed as half life in presence of NADPH at 0.5 uM by LC-MS/MS analysis; assay type: ADME, Macaca fascicularis, Microsome
readout name: half-life at 0.5 µM (min)
Field format: number, assumed min, no unit text.

Lab note: measured half-life at 0.5 µM of C=C(C)[C@@H]1CC[C@]2(NCCN3CCS(=O)(=O)CC3)CC[C@]3(C)[C@H](CC[C@@H]4[C@@]5(C)CC=C(C6=CC[C@@](CF)(C(=O)O)CC6)C(C)(C)[C@@H]5CC[C@]43C)[C@@H]12 was 28

---

test: Drug concentration in overnight fasted cynomolgus monkey plasma at 2 mg/kg, po or 1 mg/kg, iv measured after 24 hrs; type: ADME, organism-based, Macaca fascicularis
readout name: concentration at 24 h (nM)
Field format: number, assumed nM, no unit text.

Lab note: measured concentration at 24 h of C=C(C)[C@@H]1CC[C@]2(NCCN3CCS(=O)(=O)CC3)CC[C@]3(C)[C@H](CC[C@@H]4[C@@]5(C)CC=C(C6=CC[C@@](CF)(C(=O)O)CC6)C(C)(C)[C@@H]5CC[C@]43C)[C@@H]12 was 68

---

Below, each entry is listed alongside its reported EC50.
test system: Human immunodeficiency virus 1; test: Antiviral activity against HIV1 wild type NL (4 to 3) infected in human MT2 cells measured after 4 to 5 days in presence of human serum by dual-luciferase reporter assay; type: functional, organism-based; conditions: Human immunodeficiency virus 1, MT2

The cases that follow already have their EC50 on record.
C=C(C)[C@@H]1CC[C@]2(NCCN3CCC(S(C)(=O)=O)CC3)CC[C@]3(C)[C@H](CC[C@@H]4[C@@]5(C)CC=C(C6=CC[C@@](CF)(C(=O)O)CC6)C(C)(C)[C@@H]5CC[C@]43C)[C@@H]12 | 18.3 nM
C=C(C)[C@@H]1CC[C@]2(NCCN3CCS(=O)(=O)CC3)CC[C@]3(C)[C@H](CC[C@@H]4[C@@]5(C)CC=C(C6=CC7C(C6)C7C(=O)O)C(C)(C)[C@@H]5CC[C@]43C)[C@@H]12 (some centres undefined) | 30.9 nM
C=C(C)[C@@H]1CC[C@]2(NCCN3CCS(=O)(=O)CC3)CC[C@]3(C)[C@H](CC[C@@H]4[C@@]5(C)CC=C(C6=CCC(C(=O)O)(c7ccccc7)CC6)C(C)(C)[C@@H]5CC[C@]43C)[C@@H]12 (some centres undefined) | 15.1 nM

Lab note: measured EC50 of C=C(C)[C@@H]1CC[C@]2(NCCN3CCS(=O)(=O)CC3)CC[C@]3(C)[C@H](CC[C@@H]4[C@@]5(C)CC=C(C6=CCC(CF)(C(=O)O)CC6)C(C)(C)[C@@H]5CC[C@]43C)[C@@H]12 (some centres undefined) was 9.5 nM

---

experiment: Metabolic stability in mouse liver microsomes assessed as half life in presence of NADPH at 0.5 uM by LC-MS/MS analysis; assay type: ADME, Microsome
readout name: half-life at 0.5 µM

Lab note: measured half-life at 0.5 µM of C=C(C)[C@@H]1CC[C@]2(NCCN3CCS(=O)(=O)CC3)CC[C@]3(C)[C@H](CC[C@@H]4[C@@]5(C)CC=C(C6=CC[C@@](CF)(C(=O)O)CC6)C(C)(C)[C@@H]5CC[C@]43C)[C@@H]12 was > 2 h

---

assay: Drug concentration in overnight fasted Sprague-Dawley rat plasma at 5 mg/kg, po or 1 mg/kg, iv measured after 24 hrs; assay type: ADME, organism-based
readout name: concentration at 24 h
Give the number first and the unit second.

Lab note: measured concentration at 24 h of C=C(C)[C@@H]1CC[C@]2(NCCN3CCS(=O)(=O)CC3)CC[C@]3(C)[C@H](CC[C@@H]4[C@@]5(C)CC=C(C6=CC[C@@](CF)(C(=O)O)CC6)C(C)(C)[C@@H]5CC[C@]43C)[C@@H]12 was 21.8 nM

---

assay: AUC in rat at 5 mg/kg, po; assay type: ADME, organism-based; set-up: dose 5 mg/kg, route po; conditions: in vivo, read-out: AUC
readout name: AUC (µM·h)
Field format: number, assumed µM·h, no unit text.

C=C(C)[C@@H]1CC[C@]2(NCCN3CCS(=O)(=O)CC3)CC[C@]3(C)[C@H](CC[C@@H]4[C@@]5(C)CC=C(C6=CC7(C6)CC(C(=O)O)C7)C(C)(C)[C@@H]5CC[C@]43C)[C@@H]12 (some centres undefined) | 11.7
C=C(C)[C@@H]1CC[C@]2(NCCN3CCC(S(C)(=O)=O)CC3)CC[C@]3(C)[C@H](CC[C@@H]4[C@@]5(C)CC=C(C6=CC[C@@H](C(=O)O)CC6)C(C)(C)[C@@H]5CC[C@]43C)[C@@H]12 | 9.18
C=C(C)[C@@H]1CC[C@]2(NCCN3CCC(S(C)(=O)=O)CC3)CC[C@]3(C)[C@H](CC[C@@H]4[C@@]5(C)CC=C(C6=CCC(CC(F)F)(C(=O)O)CC6)C(C)(C)[C@@H]5CC[C@]43C)[C@@H]12 (some centres undefined) | 4.29

Please look at the following compound next.
Lab note: measured AUC of C=C(C)[C@@H]1CC[C@]2(NCCN3CCS(=O)(=O)CC3)CC[C@]3(C)[C@H](CC[C@@H]4[C@@]5(C)CC=C(C6=CCC(CF)(C(=O)O)CC6)C(C)(C)[C@@H]5CC[C@]43C)[C@@H]12 (some centres undefined) was 7.7

---

test: AUC(0 to t) in overnight fasted Sprague-Dawley rat at 5 mg/kg, po or 1 mg/kg, iv; type: ADME, organism-based; parameters: dose 5 mg/kg, route po; details: in vivo
Below, each entry is listed alongside its reported AUC(0-t).
Field format: number, assumed µM·h, no unit text.

C=C(C)[C@@H]1CC[C@]2(NCCN3CCS(=O)(=O)CC3)CC[C@]3(C)[C@H](CC[C@@H]4[C@@]5(C)CC=C(C6=CC[C@@](CF)(C(=O)O)CC6)C(C)(C)[C@@H]5CC[C@]43C)[C@@H]12 [FIPRAVIRIMAT] | 7.4

Please look at the following compound next.
Lab note: measured AUC(0-t) of C=C(C)[C@@H]1CC[C@]2(NCCN3CCS(=O)(=O)CC3)CC[C@]3(C)[C@H](CC[C@@H]4[C@@]5(C)CC=C(c6ccc(C(=O)O)cc6)C(C)(C)[C@@H]5CC[C@]43C)[C@@H]12 [BMS-955176] was 14.2

---

tested on: Human immunodeficiency virus 1; experiment: Antiviral activity against HIV1 wild type NL (4 to 3) infected in human MT2 cells measured after 4 to 5 days by dual-luciferase reporter assay; assay type: functional, organism-based; conditions: Human immunodeficiency virus 1, MT2
Below, each entry is listed alongside its reported EC50.
Field format: number, assumed nM, no unit text.

C=C(C)[C@@H]1CC[C@]2(NCCN3CCS(=O)(=O)CC3)CC[C@]3(C)[C@H](CC[C@@H]4[C@@]5(C)CC=C(C6=CCC(OC)(C(=O)O)CC6)C(C)(C)[C@@H]5CC[C@]43C)[C@@H]12 (stereo partly specified) | 2.5

Lab note: measured EC50 of C=C(C)[C@@H]1CC[C@]2(NCCN3CCS(=O)(=O)CC3)CC[C@]3(C)[C@H](CC[C@@H]4[C@@]5(C)CC=C(C6=CCC(CF)(C(=O)O)CC6)C(C)(C)[C@@H]5CC[C@]43C)[C@@H]12 (single isomer, unassigned) [FIPRAVIRIMAT] was 2

Lab note: measured EC50 of C=C(C)[C@@H]1CC[C@]2(NCCN3CCS(=O)(=O)CC3)CC[C@]3(C)[C@H](CC[C@@H]4[C@@]5(C)CC=C(C6=CCC(O)(C(=O)O)CC6)C(C)(C)[C@@H]5CC[C@]43C)[C@@H]12 (stereo partly specified) was 2

Lab note: measured EC50 of C=C(C)[C@@H]1CC[C@]2(NCCN3CCS(=O)(=O)CC3)CC[C@]3(C)[C@H](CC[C@@H]4[C@@]5(C)CC=C(C6=CCC(CO)(C(=O)O)CC6)C(C)(C)[C@@H]5CC[C@]43C)[C@@H]12 (stereo partly specified) was 4

Lab note: measured EC50 of C=C(C)[C@@H]1CC[C@]2(NCCN3CCS(=O)(=O)CC3)CC[C@]3(C)[C@H](CC[C@@H]4[C@@]5(C)CC=C(C6=CC7C(C6)C7C(=O)O)C(C)(C)[C@@H]5CC[C@]43C)[C@@H]12 (stereo partly specified) was 2.3

Lab note: measured EC50 of C=C(C)[C@@H]1CC[C@]2(NCCN3CCS(=O)(=O)CC3)CC[C@]3(C)[C@H](CC[C@@H]4[C@@]5(C)CC=C(C6=CCC(OC(C)C)(C(=O)O)CC6)C(C)(C)[C@@H]5CC[C@]43C)[C@@H]12 (stereo partly specified) was 5
